system: ryanodine receptor; experiment: FK506-induced Ca2+ leakage in sarcoplasmic reticulum derived from canine myocardium (fluo 3 indicator); assay type: biochemical; settings: FK506-induced leakage; polypeptide 0.1, 0.3 or 1.0 μM
readoutKind: Ca2+ leakage inhibitory activity compared with R2P

>  <substance>
RP17-36: hRyR2 amino acid Nos. 2130-2149; deletion of 16 amino acids at the N-terminal of R2P (LSVRMGKEEEKLMIRGLGDI)

>  <result>
lower than that of R2P

$$$$
>  <substance>
RP13-32: hRyR2 amino acid Nos. 2126-2145; deletion of 12 N-terminal and four C-terminal amino acids of R2P (IRSLLSVRMGKEEEKLMIRG)

>  <result>
lower than that of R2P

$$$$
>  <substance>
RP1-20: hRyR2 amino acid Nos. 2114-2133; deletion of 16 amino acids at the C-terminal of R2P (EDTINLLASLGQIRSLLSVR)

>  <result>
lower than that of R2P

$$$$

meta.source: patent US7851589B2
